Task for the reader: assign each of the following compounds its reported AUC.
- methodSummary: Antibiotics levels in blood upon oral administration at 100 mg/kg to mice (by the paper disk method)
- Format: in vivo
- appliedConditions: mouse, ND: Below detectable limit

Query: Query (compound): CCC(=O)OC=CC1CC(C)C(=O)C=CC(C)=CC(COC2OC(C)C(O)C(OC)C2OC)C(CC)OC(=O)CC(OC(=O)CC)C(C)C1OC1OC(C)CC(N(C)C)C1O (centres unmarked) [Example 3b] ; field requested: AUC
Result: 4900 ng·h/mL

Query: Query (compound): CCC(=O)OC=CC1CC(C)C(=O)C=CC(C)=CC(COC2OC(C)CC(OC)C2OC)C(CC)OC(=O)CC(OC(=O)CC)C(C)C1OC1OC(C)C(O)C(N(C)C)C1O (centres unmarked) [Example 2b] ; field requested: AUC
Result: 2800 ng·h/mL

Query: Query (compound): CCC(=O)OC1CC(=O)OC(CC)C(COC2OC(C)C(O)C(OC)C2OC)C=C(C)C=CC(=O)C(C)CC(CC=O)C(OC2OC(C)CC(N(C)C)C2O)C1C (centres unmarked) [Example 3a, 3O--Propionyl-4'deoxydesmycosin, reference compound] ; field requested: AUC
Result: 1790 ng·h/mL

Query: Query (compound): CCC(=O)OC1CC(=O)OC(CC)C(COC2OC(C)CC(OC)C2OC)C=C(C)C=CC(=O)C(C)CC(CC=O)C(OC2OC(C)C(O)C(N(C)C)C2O)C1C (centres unmarked) [Example 2a, 3O--Propionyl-4"-deoxydesmycosin, reference compound] ; field requested: AUC
Result: 1570 ng·h/mL

Query: Query (compound): CCC(=O)OC=CC1CC(C)C(=O)C=CC(C)=CC(COC(=O)N(C)C)C(CC)OC(=O)CC(OC(=O)CC)C(C)C1OC1OC(C)C(O)C(N(C)C)C1O (centres unmarked) [Ib] ; field requested: AUC
Result: 6000 ng·h/mL
